Entry source: the supplement of paper PMC9694430

Tested on: LOC_OS03G12390-cb001
Experiment: thermal shift delta Tm vs DMSO control; higher = stronger stabilization (binding);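 further: purified Escherichia coli-expressed rice kinase domain construct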
Conditions: 12.5 µM; protein concentration 2 µM
Please provide measured thermal shift delta Tm for the entries that follow.
Give the value in °C but do not write °C after it.

Incoming: # value lookup — system LOC_OS03G12390-cb001, readout thermal shift delta Tm, item `Cn1c(Nc2ccc(C(F)(F)F)cc2)nc2cc(Oc3ccnc(-c4ncc(C(F)(F)F)[nH]4)c3)ccc21`
Outgoing: 2.43

Incoming: Note, next up: `COc1ccc(CNC(=O)Nc2ncc([N+](=O)[O-])s2)cc1`
Outgoing: 0.15

Incoming: Note, next up: `C=CC(=O)N[C@H]1CCOC[C@H]1Nc1ncc2cc(-c3c(Cl)c(OC)cc(OC)c3Cl)ccc2n1`
Outgoing: -0.37

Incoming: Note, next up: `CCNC(=O)Nc1ccc(-c2nc(N3CCOC[C@@H]3C)c3c(n2)C(C)(C)S(=O)(=O)C3)cc1`
Outgoing: 0.06

Incoming: Note, next up: `Cc1nc2ccc(-n3ncc(C(=O)c4cc5ccccc5[nH]4)c3N)cc2[nH]1`
Outgoing: 1.25

Incoming: Note, next up: `COc1cccc2cc(-c3nc([C@H]4CC[C@H](C(=O)O)CC4)n4ncnc(N)c34)[nH]c12`
Outgoing: 0.34

Incoming: Note, next up: CCN(CC)CCCC(C)Nc1ccnc2cc(Cl)ccc12 (stereo not drawn) [Chloroquine Phosphate]
Outgoing: 0

Incoming: Note, next up: `CN(C)C/C=C/C(=O)Nc1ccc(C(=O)Nc2cccc(Nc3ncc(Cl)c(-c4c[nH]c5ccccc45)n3)c2)cc1`
Outgoing: 10.8

Incoming: Note, next up: `CC(C)(CO)n1cc(C(=O)c2cncc(NC(=O)Cc3ccc(Cl)cn3)c2)c2cnc(N)nc21`
Outgoing: 0.3

Incoming: Note, next up: `COc1ccc2[nH]cc(/C=C3\C(=O)Nc4ccc(NC(=O)CCN5CCCCC5)cc43)c2c1`
Outgoing: 1.22

Incoming: Note, next up: `CCN1CCN(Cc2ccc(-c3cc4c(N[C@H](C)c5ccccc5)ncnc4[nH]3)cc2)CC1`
Outgoing: 1.63

Incoming: Note, next up: `CN1CCN(Cc2ccc(NC(=O)Nc3ccc(Oc4ccnc(N)n4)cc3)cc2C(F)(F)F)CC1`
Outgoing: 1.46

Incoming: Note, next up: `Nc1[nH]nc2nnc(-c3c(-c4ccccc4)nn4ccccc34)cc12`
Outgoing: 1.36

Incoming: Note, next up: `C=CC(=O)Nc1cccc(Oc2nc(Nc3ccc(N4CCN(C)CC4)cc3)nc3ccsc23)c1`
Outgoing: 1.24

Incoming: Note, next up: `COc1cc2c(Oc3ccc(NC(=O)C4(C(=O)Nc5ccc(F)cc5)CC4)cc3F)ccnc2cc1OCCCN1CCOCC1`
Outgoing: 0.18

Incoming: Note, next up: COc1cc(Nc2ncc(F)c(Nc3ccc4c(n3)NC(=O)C(C)(C)O4)n2)cc(OC)c1OC [R406 (free base)]
Outgoing: 7.52

Incoming: Note, next up: `C[C@@H](Nc1cc(F)cc(F)c1)c1cc(C(=O)N(C)C)cc2c(=O)cc(N3CCOCC3)oc12`
Outgoing: 0

Incoming: Note, next up: Cc1cc(Nc2cc(N3CCN(C)CC3)nc(Sc3ccc(NC(=O)C4CC4)cc3)n2)n[nH]1 [Tozasertib (VX-680, MK-0457)]
Outgoing: 1.35

====

System: LOC_OS03G04050-cb001
Experiment: thermal shift delta Tm vs DMSO control; higher = stronger stabilization (binding)
Settings: 12.5 µM; protein concentration 2 µM
thermal shift delta Tm of 0.3 °C or higher: yes. Under 0.3 °C: no.

Incoming: Determine whether measured thermal shift delta Tm meets or exceeds 0.3 °C for `O=C(c1cccc(Cl)c1F)N1CCN(Cc2cccc(Nc3nccs3)n2)CC1`
Outgoing: yes

Incoming: Note, next up: `Cc1ccc(Nc2nccc(N(C)c3ccc4c(C)n(C)nc4c3)n2)cc1S(N)(=O)=O`
Outgoing: yes

Incoming: Note, next up: `Oc1cc(CNC(=S)/C=C/c2cc(O)c(O)c(Br)c2)cc(O)c1O`
Outgoing: yes

Incoming: Note, next up: `Cn1cc(-c2ccc3ncc(Cc4ccc5ncccc5c4)n3n2)cn1`
Outgoing: yes

Incoming: Note, next up: `O=C1Nc2ccccc2/C1=C1/Nc2ccccc2C1=O`
Outgoing: yes

Incoming: Note, next up: `Cc1cc(Nc2nc(N[C@@H](C)c3ccc(F)cc3)c(C#N)cc2F)n[nH]1`
Outgoing: no

Incoming: Note, next up: `O=C(Nc1c[nH]nc1-c1nc2ccc(CN3CCOCC3)cc2[nH]1)NC1CC1`
Outgoing: yes

Incoming: Note, next up: O=C1NC(=O)[C@@H](c2cn3c4c(cccc24)CCC3)[C@@H]1c1c[nH]c2ccccc12 [Tivantinib (ARQ 197)]
Outgoing: yes

Incoming: Note, next up: Cc1cccc(Nc2nc(NC3CCCCC3N)ncc2C(N)=O)c1 (stereo not given)
Outgoing: no

Incoming: Note, next up: `COc1cc(Nc2ncc3c(n2)-c2ccc(Cl)cc2C(c2c(F)cccc2OC)=NC3)ccc1C(=O)O`
Outgoing: no

====

Test system: LOC_OS04G57630-cb004
Assay: thermal shift delta Tm vs DMSO control; higher = stronger stabilization (binding)
Conditions: 12.5 µM; protein concentration 2 µM
Where a name gives a salt, the structure may show the parent alone.
thermal shift delta Tm of 1 °C or higher: True. Under 1 °C: False.

Incoming: Determine whether measured thermal shift delta Tm meets or exceeds 1 °C for NC(=O)c1ccc2nc(-c3ccc(Oc4ccc(Cl)cc4)cc3)[nH]c2c1 [Chk2 Inhibitor II (BML-277)]
Outgoing: False

Incoming: Note, next up: CN1CCC(CNc2ccc3ncc(-c4cccc(OC(F)(F)F)c4)n3n2)CC1 [SGI-1776 free base]
Outgoing: True

Incoming: Note, next up: `O=C(NOC[C@H](O)CO)c1ccc(F)c(F)c1Nc1ccc(I)cc1F`
Outgoing: False

Incoming: Note, next up: CN1CC[C@H](c2c(O)cc(O)c3c(=O)cc(-c4ccccc4Cl)oc23)[C@H](O)C1 [Flavopiridol HCl]
Outgoing: False

Incoming: Note, next up: `CC1(COc2ccc3c(c2)ncn3-c2ccc3cccc(N4CCC(N)CC4)c3n2)COC1`
Outgoing: True

Incoming: Note, next up: Cc1cc(O)c(-c2ccc([C@@H](C)CN)cc2)c2c1[nH]c(=O)c1sccc12 [OTS514 hydrochloride]
Outgoing: False

Incoming: Note, next up: `CCn1c(=O)c(-c2ccc(Cl)cc2Cl)cc2cnc(Nc3ccc(N4CCNCC4)c(F)c3)nc21`
Outgoing: True

Incoming: Note, next up: `Oc1ccc(-c2nc(-c3ccc(F)cc3)c(-c3ccncc3)[nH]2)cc1`
Outgoing: False

Incoming: Note, next up: CC(C)NC(=O)C1CCC(n2c(NC(=O)c3ccc(F)cc3)nc3ccc(CN4CCC(C(C)(C)O)CC4)cc32)CC1 (stereo not drawn) [Belizatinib (TSR-011)]
Outgoing: True

Incoming: Note, next up: `Cn1cc(-c2ccc3c(c2)CCN3C(=O)Cc2cccc(C(F)(F)F)c2)c2c(N)ncnc21`
Outgoing: True

Incoming: Note, next up: `Cc1ccc2nc(NCCN)c3ncc(C)n3c2c1`
Outgoing: False

Incoming: Note, next up: `C[C@@H](Oc1cc(-c2cnn(C3CCNCC3)c2)cnc1N)c1c(Cl)ccc(F)c1Cl`
Outgoing: True

Incoming: Note, next up: `NC1(Cc2ccc(Cl)cc2)CCN(c2ncnc3[nH]ccc23)CC1`
Outgoing: False

Incoming: Note, next up: `CC(=O)Nc1nc(C)c(-c2ccc(Cl)c(S(=O)(=O)NCCO)c2)s1`
Outgoing: False

Incoming: Note, next up: C#Cc1cccc(Nc2ncnc3cc(OCCOC)c(OCCOC)cc23)c1 [Erlotinib]
Outgoing: False

Incoming: Note, next up: NC(=O)c1ncn([C@@H]2O[C@H](CO)[C@@H](O)[C@H]2O)c1N [AICAR (Acadesine)]
Outgoing: False

Incoming: Note, next up: `Cc1cc(NC(=O)c2cccc(NC(=O)/C=C/CN(C)C)c2)ccc1Nc1nccc(-c2cccnc2)n1`
Outgoing: True

Incoming: Note, next up: Cc1cc(Nc2cc(N3CCN(C)CC3)nc(/C=C/c3ccccc3)n2)n[nH]1 [ENMD-2076 L-(+)-Tartaric acid]
Outgoing: True

Incoming: Note, next up: `COc1cc2c(Nc3ccc(NC(=O)c4ccccc4)cc3)ncnc2cc1OCCCN1CCOCC1`
Outgoing: True

Incoming: Note, next up: `CCCNC(=O)Nc1ccc(Oc2ncnc3cc(OC)c(OC)cc23)cc1Cl`
Outgoing: False

Incoming: Note, next up: `COc1ccc(F)c(F)c1C(=O)c1cnc(NC2CCN(S(C)(=O)=O)CC2)nc1N`
Outgoing: False

Incoming: Note, next up: COc1cc2c3cc1Oc1c(OC)c(OC)cc4c1[C@@H](Cc1ccc(O)c(c1)Oc1ccc(cc1)C[C@@H]3N(C)CC2)N(C)CC4 [Berbamine (dihydrochloride)]
Outgoing: False

Incoming: Note, next up: `CO[C@H]1C[C@@H]2CC[C@@H](C)[C@@](O)(O2)C(=O)C(=O)N2CCCC[C@H]2C(=O)O[C@H]([C@H](C)C[C@@H]2CC[C@@H](OC(=O)C(C)(CO)CO)[C@H](OC)C2)CC(=O)[C@H](C)/C=C(\C)[C@@H](O)[C@@H](OC)C(=O)[C@H](C)C[C@H](C)/C=C/C=C/C=C/1C`
Outgoing: False

Incoming: Note, next up: O=C1Nc2ccccc2/C1=C1/Nc2ccccc2C1=O [Indirubin]
Outgoing: False

Incoming: Note, next up: Nc1ccc(-c2ccc3ncc4ccc(=O)n(-c5cccc(C(F)(F)F)c5)c4c3c2)cn1 [Torin 2]
Outgoing: False

Incoming: Note, next up: `O=C(Nc1ccc(OC(F)(F)F)cc1)c1sccc1NCc1ccnc2ccccc12`
Outgoing: False

Incoming: Note, next up: COc1cc2nccc(Oc3ccc(NC(=O)Nc4cc(C)on4)c(Cl)c3)c2cc1OC [Tivozanib (AV-951)]
Outgoing: True

Incoming: Note, next up: `C[C@@H](Oc1ccc2[nH]nc(/C=C/c3cnn(CCO)c3)c2c1)c1c(Cl)cncc1Cl`
Outgoing: True

Incoming: Note, next up: `Cn1cc(-c2ccc3nnc(Sc4ccc5ncccc5c4)n3n2)cn1`
Outgoing: False

Incoming: Note, next up: `CNc1nc(-c2ccc3c(N)n[nH]c3c2)cc(N2C[C@@H](C(=O)NC3CCCCC3)CC[C@H]2C)n1`
Outgoing: False

Incoming: Note, next up: Cc1ccc(-n2nc(C(C)(C)C)cc2NC(=O)NCc2cc(F)ccc2Oc2ccc3c(cnn3CCO)c2)cc1 [Pexmetinib (ARRY-614)]
Outgoing: True

Incoming: Note, next up: CN1CCN(c2nc(C3=C(c4c[nH]c5ccccc45)C(=O)NC3=O)c3ccccc3n2)CC1 [Sotrastaurin]
Outgoing: False

Incoming: Note, next up: CC(C)(C)c1nc(-c2ccc(NC(=O)Nc3cccc(C(F)(F)F)c3)c3ccccc23)c2c(N)nccn12 [kira6]
Outgoing: True
